Source of measurements: ChEMBL document CHEMBL4665758

TESTED_TARGET: Rho-associated protein kinase 2 (Homo sapiens)
Sequence (O75116 whole entry): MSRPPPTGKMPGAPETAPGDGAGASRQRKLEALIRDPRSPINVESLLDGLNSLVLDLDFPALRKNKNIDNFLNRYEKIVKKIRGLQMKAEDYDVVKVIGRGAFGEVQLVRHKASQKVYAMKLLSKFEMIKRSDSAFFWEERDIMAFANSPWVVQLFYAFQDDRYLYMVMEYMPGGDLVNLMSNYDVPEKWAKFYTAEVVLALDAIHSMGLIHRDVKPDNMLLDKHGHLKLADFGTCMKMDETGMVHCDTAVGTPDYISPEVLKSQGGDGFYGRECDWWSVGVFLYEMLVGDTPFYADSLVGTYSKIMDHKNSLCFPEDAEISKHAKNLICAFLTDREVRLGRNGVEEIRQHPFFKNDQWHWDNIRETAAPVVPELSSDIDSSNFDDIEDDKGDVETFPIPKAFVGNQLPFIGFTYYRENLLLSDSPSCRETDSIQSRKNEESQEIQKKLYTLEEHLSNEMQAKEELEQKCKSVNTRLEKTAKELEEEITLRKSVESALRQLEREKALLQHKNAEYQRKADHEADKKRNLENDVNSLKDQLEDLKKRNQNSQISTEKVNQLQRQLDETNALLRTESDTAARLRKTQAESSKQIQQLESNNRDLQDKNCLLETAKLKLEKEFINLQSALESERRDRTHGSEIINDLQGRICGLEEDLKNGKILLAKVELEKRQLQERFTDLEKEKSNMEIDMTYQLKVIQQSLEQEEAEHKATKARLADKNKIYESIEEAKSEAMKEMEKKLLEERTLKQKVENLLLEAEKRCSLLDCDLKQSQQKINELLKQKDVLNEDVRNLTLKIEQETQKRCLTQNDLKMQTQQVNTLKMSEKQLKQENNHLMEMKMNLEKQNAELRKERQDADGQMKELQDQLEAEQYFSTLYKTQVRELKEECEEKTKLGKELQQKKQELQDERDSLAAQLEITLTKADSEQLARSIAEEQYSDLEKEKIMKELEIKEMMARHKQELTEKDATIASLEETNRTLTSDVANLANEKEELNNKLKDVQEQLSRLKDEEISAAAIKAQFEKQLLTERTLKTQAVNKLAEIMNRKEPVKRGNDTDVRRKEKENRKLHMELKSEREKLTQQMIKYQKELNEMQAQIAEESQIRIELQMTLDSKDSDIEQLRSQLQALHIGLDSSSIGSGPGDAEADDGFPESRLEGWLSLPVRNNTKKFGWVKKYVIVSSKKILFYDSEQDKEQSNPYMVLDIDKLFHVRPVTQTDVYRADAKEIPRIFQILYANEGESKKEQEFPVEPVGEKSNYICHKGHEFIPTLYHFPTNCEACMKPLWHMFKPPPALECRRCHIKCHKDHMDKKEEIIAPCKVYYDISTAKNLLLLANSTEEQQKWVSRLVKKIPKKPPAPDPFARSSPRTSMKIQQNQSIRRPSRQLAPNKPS
PROPERTY_NAME: pIC50
One number for each entry, as −log10 of the molar value.

Item under review: C[C@H]1CNCCCN1S(=O)(=O)c1cccc2cncc(F)c12 . Reported pIC50?
7.70
